# cond: in sec-butanol, 283.15 K
propertyLabel: solubility (mole fraction)

structureString: c1ccc2[nH]cnc2c1
testValue: 0.0881

----------
# cond: in methanol, 283.15 K
propertyLabel: solubility (mole fraction)

structureString: c1ccc2[nH]cnc2c1
testValue: 0.0888

----------
# cond: in isopropanol, 313.15 K
propertyLabel: solubility (mole fraction)

structureString: c1ccc2[nH]cnc2c1
testValue: 0.117

----------
# cond: in water, 308.15 K

structureString: c1ccc2[nH]cnc2c1
solubility (mole fraction): 0.00115

----------
# cond: in n-butyl acetate, 283.15 K
propertyLabel: solubility (mole fraction)

structureString: c1ccc2[nH]cnc2c1
propertyLabel: solubility (mole fraction)
testValue: 0.0064
